surviving fraction: recorded values
# Test system: FT3469 (normal neural stem cell line)
# PROCEDURE_SUMMARY: surviving fraction (nuclei count normalised to DMSO); higher = more cells surviving (less toxic)
# CONDITION_PARAMETERS: 12.3 nM; exposure time: 72 h
Where a name gives a salt, the structure may show the parent alone.
READOUT_KIND: surviving fraction

>>> value_observed("OC[C@H]1O[C@@H](Oc2ccc(O)cc2)[C@H](O)[C@@H](O)[C@@H]1O")
0.99
>>> value_observed("OCCN1CCN(CCCN2c3ccccc3Sc3ccc(C(F)(F)F)cc32)CC1 [Fluphenazine dihydrochloride]")
1.09
>>> value_observed("Nc1ccn([C@@H]2O[C@H](CO)[C@@H](O)C2(F)F)c(=O)n1 [Gemcitabine HCl]")
0.842
>>> value_observed("C=C[C@H]1CN2CC[C@H]1C[C@@H]2[C@@H](O)c1ccnc2ccc(OC)cc12 [Quinidine hydrochloride monohydrate]")
0.955

* * *

# Test system: E28 (patient-derived glioblastoma stem cells of classical subtype)
# PROCEDURE_SUMMARY: surviving fraction (nuclei count normalised to DMSO); higher = more cells surviving (less toxic)
# CONDITION_PARAMETERS: 3000 nM; exposure time: 72 h
Counter-ions that a name gives are not always drawn.
Lab note: compare surviving fraction against 0.3. Equal or greater, write Fulfilled. Smaller, write Not fulfilled.

>>> group_label("O=c1c2ccccc2[se]n1-c1ccccc1 [Ebselen]")
"Not fulfilled"
>>> group_label("O=C(CCBr)N1CCN(C(=O)CCBr)CC1 [Pipobroman]")
"Fulfilled"
>>> group_label("COc1cccc2c1C(=O)c1c(O)c3c(c(O)c1C2=O)C[C@@](O)(C(=O)CO)C[C@@H]3O[C@H]1C[C@H](N)[C@H](O[C@@H]2CCCCO2)[C@H](C)O1 [Pirarubicin]")
"Not fulfilled"
>>> group_label("Cc1cc(CN2CCN(c3c(Br)cnc4nc(-c5ccc(N6CCN(C)CC6)cc5)[nH]c34)CC2)no1")
"Not fulfilled"
>>> group_label("CC(C)C[C@H](NC(=O)[C@H](Cc1ccccc1)NC(=O)c1cnccn1)B(O)O [Bortezomib]")
"Not fulfilled"
>>> group_label("O=C(Nc1ccc([N+](=O)[O-])cc1Cl)c1cc(Cl)ccc1O [Niclosamide]")
"Not fulfilled"
>>> group_label("Cc1ccc(/C=N/NC(=O)c2n[nH]c3c2CCCC3)cc1 [Suprafenacine]")
"Not fulfilled"
>>> group_label("Cc1ncc(CO)c(CO)c1O [Pyridoxine hydrochloride]")
"Fulfilled"
>>> group_label("Nc1ncn([C@@H]2O[C@H](CO)[C@@H](O)[C@H]2O)c(=O)n1 [5-azacytidine]")
"Fulfilled"
>>> group_label("CCOC(=O)OC(C)OC1=C(C(=O)Nc2ccccn2)N(C)S(=O)(=O)c2ccccc21 (configuration not stated) [Ampiroxicam]")
"Fulfilled"
>>> group_label("CNc1ccc2oc(C[C@H]3O[C@@]4(CC[C@H]3C)O[C@H]([C@H](C)C(=O)c3ccc[nH]3)[C@H](C)C[C@H]4C)nc2c1C(=O)O [Calcimycin]")
"Not fulfilled"
>>> group_label("CC(C)(C)C1CCN(C(=O)n2ncc(C(O)(c3ccccc3)c3ccccc3)n2)CC1 [ML211]")
"Fulfilled"
>>> group_label("C/C(=C\\c1csc(C)n1)[C@@H]1C[C@@H]2O[C@]2(C)CCC[C@H](C)[C@H](O)[C@@H](C)C(=O)C(C)(C)[C@@H](O)CC(=O)N1 [Ixabepilone]")
"Not fulfilled"
>>> group_label("O=C1CC[C@@H](C(=O)N2CSC[C@H]2C(=O)O)N1 [Pidotimod]")
"Fulfilled"
>>> group_label("CCCCC(CC)CNC(=N)NC(=N)NCCCCCCNC(=N)NC(=N)NCC(CC)CCCC (configuration not stated) [Alexidine dihydrochloride]")
"Not fulfilled"

* * *

# Tested on: E34 (patient-derived glioblastoma stem cells of proneural subtype);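 also: cell Painting imaging in 384-well plates, CellProfiler features reduced to at least 20 principal components, Euclidean distance versus same-plate DMSO vehicle wells (0.1% v/v), median over six images per well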
# PROCEDURE_SUMMARY: phenotypic distance (Euclidean, principal components) from DMSO controls (arbitrary units); higher = stronger morphological change
# CONDITION_PARAMETERS: 12.3 nM; exposure time: 72 h
Where a name gives a salt, the structure may show the parent alone.
READOUT_KIND: phenotypic distance

>>> value_observed("Nc1ncnc2c1c(-c1ccc(Oc3ccccc3)cc1)cn2C1CCCC1")
0.927
>>> value_observed("CC[C@]1(O)C[C@@H]2CN(CCc3c([nH]c4ccccc34)[C@@](C(=O)OC)(c3cc4c(cc3OC)N(C)[C@H]3[C@@](O)(C(=O)OC)[C@H](OC(C)=O)[C@]5(CC)C=CCN6CC[C@]43[C@@H]65)C2)C1 [Vinblastine sulfate]")
7.36
>>> value_observed("NC(=O)c1cccc2cn(-c3ccc([C@@H]4CCCNC4)cc3)nc12 [Niraparib]")
0.78
>>> value_observed("C/C=C1\\NC(=O)[C@H]2CSSCC/C=C/[C@H](CC(=O)N[C@H](C(C)C)C(=O)N2)OC(=O)[C@H](C(C)C)NC1=O [Romidepsin]")
7.96
>>> value_observed("COc1cc([C@@H]2c3cc4c(cc3[C@H](O)[C@H]3COC(=O)[C@H]23)OCO4)cc(OC)c1OC [Podophyllotoxin]")
4.98
>>> value_observed("O=C1CC[C@@H](C(=O)N2CSC[C@H]2C(=O)O)N1 [Pidotimod]")
0.613
>>> value_observed("Cc1[nH]nc(C(F)(F)F)c1Cc1sc2c(c1C(=O)N1C[C@](C)(O)CO1)c(=O)n(C)c(=O)n2C(C)C [AZD3965]")
1.33
>>> value_observed("C[C@@H](O[C@H]1OCCN(Cc2n[nH]c(=O)[nH]2)[C@H]1c1ccc(F)cc1)c1cc(C(F)(F)F)cc(C(F)(F)F)c1 [Aprepitant]")
0.635
>>> value_observed("CC(C)C[C@H](NC(=O)CNC(=O)c1cc(Cl)ccc1Cl)B1OC(=O)C(CC(=O)O)(CC(=O)O)O1 [MLN9708]")
6.29
>>> value_observed("Cc1cc(CN2CCN(c3c(Br)cnc4nc(-c5ccc(N6CCN(C)CC6)cc5)[nH]c34)CC2)no1")
1.13
>>> value_observed("COc1ccc(/C=C\\c2cc(OC)c(OC)c(OC)c2)cc1OP(=O)(O)O [Fosbretabulin Disodium]")
0.552
>>> value_observed("Cc1cc(Nc2cc(CN3CCOCC3)c3nc(C)c(Cc4ccc(Cl)cc4F)n3n2)n[nH]1 [Gandotinib]")
2.31
>>> value_observed("COc1nc(C)nc(Cl)c1NC1=NCCN1 [Moxonidine]")
0.861
>>> value_observed("Cc1cc(C)c(CN2CCc3c(Cl)cc(-c4c(C)noc4C)c(Cl)c3C2=O)c(=O)[nH]1")
0.682
>>> value_observed("O=C(Nc1ccc([N+](=O)[O-])cc1Cl)c1cc(Cl)ccc1O [Niclosamide]")
2.56
>>> value_observed("CCn1c(-c2nonc2N)nc2cnc(Oc3cccc(NC(=O)c4ccc(OCCN5CCOCC5)cc4)c3)cc21")
1.69
>>> value_observed("CC1CNc2c(cccc2S(=O)(=O)N[C@@H](CCCNC(=N)N)C(=O)N2CC[C@@H](C)C[C@@H]2C(=O)O)C1 (stereo partly specified) [Argatroban]")
0.667
>>> value_observed("Nc1ccn([C@H]2CC[C@@H](CO)O2)c(=O)n1 [Zalcitabine]")
0.593
>>> value_observed("Clc1ccc(C(Cn2ccnc2)OCc2ccsc2Cl)c(Cl)c1 (stereo unspecified) [Tioconazole]")
0.535
>>> value_observed("COc1cc2c(NC3CCN(C(C)C)CC3)nc(C3CCCCC3)nc2cc1OCCCN1CCCC1 [UNC0638]")
0.632
>>> value_observed("CC[C@@]1(O)C(=O)OCc2c1cc1n(c2=O)Cc2cc3c(CN(C)C)c(O)ccc3nc2-1 [Topotecan]")
2.99
>>> value_observed("Clc1ccc(COC(Cn2ccnc2)c2ccc(Cl)cc2Cl)cc1 (stereo unspecified) [Econazole nitrate]")
0.505
>>> value_observed("Nc1nc2n[nH]nc2c(=O)[nH]1 [Azaguanine-8]")
0.707
>>> value_observed("Cn1ncnc1[C@H]1c2n[nH]c(=O)c3cc(F)cc(c23)N[C@@H]1c1ccc(F)cc1 [Talazoparib]")
3.64
>>> value_observed("COc1ccc2c(c1)CC[C@@H]1[C@@H]2CC[C@]2(C)[C@@H](NCCCCCCN3C(=O)CCC3=O)CC[C@@H]12")
0.657
>>> value_observed("COc1cccc2c1C(=O)c1c(O)c3c(c(O)c1C2=O)C[C@@](O)(C(C)=O)C[C@@H]3O[C@H]1C[C@H](N)[C@H](O)[C@H](C)O1 [Daunorubicin hydrochloride]")
4.29
>>> value_observed("N=C(N)NCc1cccc(I)c1 [Iobenguane sulfate]")
0.879
>>> value_observed("O=C(/C=C\\n1cnc(-c2cc(C(F)(F)F)cc(C(F)(F)F)c2)n1)NNc1cnccn1 [Selinexor]")
1.28
>>> value_observed("CC[C@H]1CN2CCc3cc(OC)c(OC)cc3[C@@H]2C[C@@H]1C[C@H]1NCCc2cc(OC)c(OC)cc21 [Emetine dihydrochloride hydrate]")
0.706
>>> value_observed("COC(=O)Nc1nc2cc(C(=O)c3ccc(F)cc3)ccc2[nH]1 [Flubendazol]")
0.863
>>> value_observed("CCCCCCCCCCCCCCCC[N+](C)(C)CCN(Cc1ccc(OC)cc1)c1ncccn1 [Thonzonium bromide]")
0.535
